test system: NCI-H226 lung; test: NCI-60 one-dose screen, 48 h (100 = growth as untreated, 0 = no growth, -100 = all killed); conditions: 10 µM unless noted
Compounds without any hit were thinned out: in the full panel of roughly 83,000, 20% have a hit.
MEASURED_ENDPOINT: growth (%)

[[record]]
chem_smiles = "COc1cc(CN2CCO[C@H](COc3cccc(F)c3)C2)ccc1Cl"
readout_number = 59.7

[[record]]
chem_smiles = "Cc1c(O)c(=O)n(-c2ccccc2)n1C"
readout_number = 100

[[record]]
chem_smiles = "O=C1/C(=C\\c2cccn2Cc2ccc(Cl)cc2)c2ccccc2N1c1c(Cl)cccc1Cl"
readout_number = 59.3

[[record]]
chem_smiles = "COc1ccc(Nc2ncnc3c2sc2nc(C)cc(C)c23)cc1"
readout_number = 103

[[record]]
chem_smiles = "O=c1[nH]c2cc(Cl)c(Cl)cc2o1"
readout_number = 90.5

[[record]]
chem_smiles = "CCN(CC)c1ccc(C(=N)c2ccc(N(C)C)cc2)cc1"
readout_number = 16.4

[[record]]
chem_smiles = "O=c1c2sc3ccccc3c2nnn1-c1ccc(F)c(Cl)c1"
readout_number = 34.3

